Readings of pKd for the listed compounds
target: c-Cbl (residues 47-435) (Homo sapiens (Human), UniProt P22681); assay: c-Cbl SPR assay; format: binding; details: 20° C.
Sequence (P22681 47-435): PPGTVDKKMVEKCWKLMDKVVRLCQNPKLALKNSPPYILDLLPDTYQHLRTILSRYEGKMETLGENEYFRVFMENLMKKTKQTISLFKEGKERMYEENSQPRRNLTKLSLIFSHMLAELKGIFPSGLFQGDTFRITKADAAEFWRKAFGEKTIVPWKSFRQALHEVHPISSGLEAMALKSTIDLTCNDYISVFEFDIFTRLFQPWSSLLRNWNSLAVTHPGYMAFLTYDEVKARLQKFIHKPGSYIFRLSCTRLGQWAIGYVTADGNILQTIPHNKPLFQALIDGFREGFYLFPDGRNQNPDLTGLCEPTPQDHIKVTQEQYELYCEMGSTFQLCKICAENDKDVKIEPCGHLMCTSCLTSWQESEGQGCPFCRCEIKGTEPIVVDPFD
In textbook form, pKd equals minus log to base ten of the concentration in mol/L.

[
  {
    "COMPOUND": "Cn1cnnc1C(c1cccc(N2Cc3c(cc(CNC4(C)CCC4)cc3C(F)(F)F)C2=O)c1)[C@H]1C[C@H](CC#N)C1 (single isomer, unassigned)",
    "READOUT": "pKd",
    "REPORTED": 8.62
  }
]

Item Cn1cnnc1[C@]1(c2cccc(N3Cc4c(cc(CNC5(C)CCC5)cc4C(F)(F)F)C3=O)c2)C[C@H]([S@@+](C)[O-])C1 (single isomer, unassigned) ; assay system c-Cbl (residues 47-435) (Homo sapiens (Human), UniProt P22681); pKd reported as 5.52

Value (pKd, c-Cbl (residues 47-435) (Homo sapiens (Human), UniProt P22681)) for record `CS[C@H]1C[C@](c2cccc(N3Cc4c(cc(CNC5(C)CCC5)cc4C(F)(F)F)C3=O)c2)(c2nncn2C)C1` = 8.28

c-Cbl (residues 47-435) (Homo sapiens (Human), UniProt P22681) data for COC1CC([C@@H](c2cccc(N3Cc4c(cc(CNC5(C)CCC5)cc4C(F)(F)F)C3=O)c2)c2nncn2C)C1 (single isomer, unassigned) [Compound 133] ; its pKd: 6.18

Fill in: c-Cbl (residues 47-435) (Homo sapiens (Human), UniProt P22681) pKd for Cn1cnnc1[C@H](c1cccc(N2Cc3c(Cl)cc(CNC4(C)CCC4)cc3C2=O)c1)[C@H]1C[C@H](F)C1 (single isomer, unassigned) = 8.66
